Biological target: HO-1 (rat spleen) (Rattus norvegicus)
Construct: Spleen microsomes were used as a source of HO-1; from tissue; host or cells: spleen microsomal fraction of adult male Sprague-Dawley rats
Assay: HO enzymatic activity, rat spleen microsomal fraction (CO formation from methemalbumin)
Type: biochemical
Settings: CO formation from methemalbumin, mean ± SD of replicate experiments, read-out: IC50 HO-1 (rat spleen/μM)
Counter-ions that a name gives are not always drawn.
Observed Property: IC50

c1ccc(CCC2(Cn3cccn3)OCCO2)cc1 [QC-95, hydrochloride] ... > 100 µM
COC(=O)c1ncn(CC(=O)CCc2ccccc2)n1 ... > 100 µM
NCCc1c[nH]cn1 [QC-67, Histamine dihydrochloride, reference compound] ... > 100 µM
O=C(CCc1ccccc1)C[n+]1ccncc1 ... 163 µM

For each of the items listed, what is its IC50?
1. c1cn(CCCCCCn2ccnc2)cn1 [QC-89, dihydrochloride]
2. CS(=O)(=O)c1nccn1CC(=O)CCc1ccccc1
3. O=C(CCc1ccccc1)Cn1nccn1
4. Cl.O=C(Cn1ccnc1)C12CC3CC(CC(C3)C1)C2 [QC-82, hydrochloride]
5. O=C(CBr)CCc1ccc(Br)cc1
6. Cl.OC(CCc1ccc(Br)cc1)Cn1ccnc1 (racemic) [QC-79, hydrochloride]

1: > 100 µM; 2: > 100 µM; 3: > 100 µM; 4: 3 µM; 5: 42 µM; 6: 0.1 µM

###

Target: HO-1 (rat spleen) (Rattus norvegicus, UniProt P06762)
Construct: Spleen microsomes were used as a source of HO-1; from tissue; host or cells: spleen microsomal fraction of adult male Sprague-Dawley rats
Sequence (P06762 1-289): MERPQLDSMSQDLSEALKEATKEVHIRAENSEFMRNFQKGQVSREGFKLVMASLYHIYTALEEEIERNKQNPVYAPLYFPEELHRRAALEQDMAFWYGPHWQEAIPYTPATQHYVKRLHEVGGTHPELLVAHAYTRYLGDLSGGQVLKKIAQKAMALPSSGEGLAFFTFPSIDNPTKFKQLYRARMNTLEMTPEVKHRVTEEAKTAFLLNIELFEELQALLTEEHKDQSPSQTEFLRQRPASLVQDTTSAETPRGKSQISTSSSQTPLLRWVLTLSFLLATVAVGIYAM
Experiment: HO enzymatic activity, rat spleen microsomal fraction (CO formation from methemalbumin)
Type: biochemical
Conditions: CO formation from methemalbumin, mean ± SD of replicate experiments, read-out: IC50 HO-1 (rat spleen/μM)
Experimental: Incubations for HO activity analysis were done under conditions for which the rate of CO formation (pmol CO×min^−1×mg protein^−1) was linear with respect to time and microsomal protein concentration. […] The values on the abscissa represent the decimal logarithm of the inhibitor's concentration (in μM), whereas the values of the activity on the ordinate are expressed as a percentage of the control experiments without inhibitor. […]
Where a name gives a salt, the structure may show the parent alone.
Observed Property: IC50

Solved cases below.
Cl.Clc1ccc(CCCCn2ccnc2)cc1 [QC-105, hydrochloride] ... 0.5 µM
Nc1cc(Cl)ccc1-c1nnn[nH]1 ... > 100 µM
COC(=O)c1cncn1CC(=O)CCc1ccccc1 ... 55 µM

For each of the items listed, what is its IC50?
1. Fc1ccc(COC(CCc2ccc(Cl)cc2)Cn2ccnc2)cc1 (stereo not shown) [QC-37, hydrochloride]
2. Oc1ccc(OC[C@H]2CO[C@@](CCc3ccc(Cl)cc3)(Cn3ccnc3)O2)cc1 [QC-46, hydrochloride]
3. O=C(NCCCn1ccnc1)c1ccccc1 [QC-109, N-(3-Imidazol-1-yl-propyl)-benzamide]

1. 0.9 µM
2. 1.8 µM
3. > 100 µM

For each of the items listed, what is its IC50?
1. O=C(O)Cn1ccnc1
2. O=C(CCc1ccccc1)Cn1cnc([N+](=O)[O-])c1
3. O=C(n1ccnc1)C(F)(F)F

1: > 100 µM; 2: > 100 µM; 3: > 100 µM

For each of the items listed, what is its IC50?
1. Cc1ncc[nH]1 [QC-45, 2-methylimidazole, reference compound]
2. COc1cccc(-c2nnn[nH]2)c1
3. O=C(CCc1ccccc1)Cn1cnc2ccccc21

1. > 100 µM
2. > 100 µM
3. > 100 µM

For each of the items listed, what is its IC50?
1. O=C(CCc1ccccc1)Cn1nnc2ccccc21
2. c1cn(CCCCn2ccnc2)cn1 [QC-88, dihydrochloride]
3. N[C@@H](Cc1c[nH]cn1)C(=O)O [QC-68, L-histidine hydrochloride monohydrate, reference compound]
4. Cl.OC(CCc1ccccc1)Cn1ccnc1 (racemic) [QC-76, hydrochloride]
5. COC(=O)c1ncnn1CC(=O)CCc1ccccc1
6. O=C(c1ccc(-n2ccnc2)cc1)C1CC1 [QC-98, hydrochloride]

1. > 100 µM
2. > 100 µM
3. > 100 µM
4. 6 µM
5. > 100 µM
6. > 100 µM

IC50 in this record for "O=C(CCc1ccccc1)Cn1ccnn1" : 89 µM

###

I'd be grateful if you could share measured IC50 for these entries.
Target: HO-2 (rat brain) (Rattus norvegicus, UniProt P23711)
Construct: brain microsomes were used as a source of HO-2; from tissue; host or cells: brain microsomal fraction of adult male Sprague-Dawley rats
Sequence (P23711 whole entry): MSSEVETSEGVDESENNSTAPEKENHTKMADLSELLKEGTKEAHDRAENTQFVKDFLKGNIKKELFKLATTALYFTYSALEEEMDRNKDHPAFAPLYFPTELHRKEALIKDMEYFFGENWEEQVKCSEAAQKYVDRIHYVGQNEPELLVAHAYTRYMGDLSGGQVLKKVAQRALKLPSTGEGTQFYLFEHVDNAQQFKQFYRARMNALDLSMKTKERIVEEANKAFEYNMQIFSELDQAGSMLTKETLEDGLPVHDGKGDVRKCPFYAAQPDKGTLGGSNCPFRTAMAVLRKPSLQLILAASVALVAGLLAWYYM
Experiment: HO enzymatic activity, rat brain microsomal fraction (CO formation from methemalbumin)
Type: biochemical
Conditions: average ± SD of replicate experiments, read-out: IC50 HO-2 (rat brain)/μM)
Protocol: Incubations for HO activity analysis were done under conditions for which the rate of CO formation (pmol CO×min^−1×mg protein^−1) was linear with respect to time and microsomal protein concentration. […] The values on the abscissa represent the decimal logarithm of the inhibitor's concentration (in μM), whereas the values of the activity on the ordinate are expressed as a percentage of the control experiments without inhibitor. […]
Structures can show the parent of a compound that is named as a salt.

CS(=O)(=O)c1ncnn1CC(=O)CCc1ccccc1 ... > 100 µM

For each of the items listed, what is its IC50?
1. NC[C@@H]1CO[C@@](CCc2ccccc2)(Cn2ccnc2)O1 [QC-190, dihydrochloride]
2. CS(=O)(=O)c1ncn(CC(=O)CCc2ccccc2)n1
3. O=C(CCc1ccccc1)Cn1cnc([N+](=O)[O-])n1
4. CCN1CCN(c2nc3ccccc3[nH]2)CC1 [QC-148, dihydrochloride hemihydrate]

> 100 µM
> 100 µM
> 100 µM
> 100 µM

For each of the items listed, what is its IC50?
1. Nc1nc2cc(OCCCCN3CCCCC3)ccc2[nH]1 [QC-146, hydrate]
2. O=C(Cn1ccnc1)c1ccc2ccccc2c1 [QC-162, hydrochloride]
3. O=C(CCc1ccc(O)cc1)Cn1ccnc1 [QC-206, hydrochloride]
4. CCOC(=O)Cc1nnn(CC(=O)CCc2ccccc2)n1
5. c1ccc2[nH]c(NC3CCC(c4cnc[nH]4)CC3)nc2c1 (centres unmarked) [QC-149, dihydrochloride]
6. c1ccc2[nH]c(NCCCCCN3CCCCC3)nc2c1

1: > 100 µM; 2: 12 µM; 3: 251 µM; 4: > 100 µM; 5: > 200 µM; 6: > 100 µM

###

Target: HO-2 (rat brain) (Rattus norvegicus)
Construct: brain microsomes were used as a source of HO-2; from tissue; host or cells: brain microsomal fraction of adult male Sprague-Dawley rats
Assay: HO enzymatic activity, rat brain microsomal fraction (CO formation from methemalbumin)
Assay type: biochemical
Conditions: CO formation from methemalbumin, mean ± SD of replicate experiments, read-out: IC50 HO-2 (rat brain)/μM)
Counter-ions that a name gives are not always drawn.
Observed Property: IC50

Oc1ccc(OC[C@H]2CO[C@@](CCc3ccc(Cl)cc3)(Cn3ccnc3)O2)cc1 [QC-46, hydrochloride] ... 7.1 µM
O=C(CCc1ccccc1)Cn1cncn1 [QC-86, hydrochloride] ... 34 µM
O=C(CCc1ccccc1)Cn1cnnn1 [QC-118, hydrochloride] ... 20 µM

For each of the items listed, what is its IC50?
1. CSc1nccn1CC(=O)CCc1ccccc1
2. O=C(CCc1ccccc1)C[n+]1ccncc1
3. O=C(NCCCn1ccnc1)Nc1ccccc1

> 100 µM
> 100 µM
> 100 µM

###

Molecular target: HO-1 (rat spleen) (Rattus norvegicus, UniProt P06762)
Construct: Spleen microsomes were used as a source of HO-1; from tissue; host or cells: spleen microsomal fraction of adult male Sprague-Dawley rats
Assay: HO enzymatic activity, rat spleen microsomal fraction (CO formation from methemalbumin)
Type: biochemical
Details: IC50 HO-1 (rat spleen/μM), CO formation from methemalbumin, mean ± SD of replicate experiments
Counter-ions that a name gives are not always drawn.
Observed Property: IC50 (µM)
Numbers only, in µM.

For each of the items listed, what is its IC50?
1. Clc1ccc(CCC2(Cn3ccnc3)O[C@H]3CCCC[C@H]3O2)cc1 (some centres unmarked)
2. Fc1ccc(CCC2(Cn3ccnc3)OCCO2)cc1 [QC-55, hydrochloride]

[69, 4]

For each of the items listed, what is its IC50?
1. Nc1cccc(SC[C@H]2CO[C@](CCc3ccc(Cl)cc3)(Cn3ccnc3)O2)c1 [QC-20, hydrochloride]
2. Clc1ccc(CCC2(Cn3ccnc3)OCCCO2)cc1 [QC-70, hydrochloride]
3. COc1ccc(CCC(=O)Cn2ccnc2)cc1 [QC-72, hydrochloride]

1: 5.2; 2: 20; 3: 2.2
